- target-of-assay: GDF3; also: reference of the scale not given here
- method: pooled miR-30 sensor sort-seq; sequence = guide strand
- measurement-parameters: shRNA
measurement-name: sensor-assay potency score (higher = more potent)
Provide a numeric answer; units are not to be included.

Take a look at these entries with their results.
# biosequence, endpoint-value
measured = [
    ("ATCCTTAGCTACATCCAGCAGG", -0.935),
    ("TAACAGGAAGCTGAAAGCCAAA", -1.72),
    ("ATTGTCATTATTGTCCTGGTAG", 0.032),
    ("TAATGTCGTAGAATGACATTGT", 0.288),
    ("TTTATTAAAAGATTTACCCTAA", 0.196),
    ("TTACGTAGCATAAGTCTCGGGA", 0.238),
    ("TAGAATGACATTGTCATTATTG", -1.56),
]

Query sequence follows.
Query string: For "TTCTTTGACCAGTATCTCCAGG" , what is its reported sensor-assay potency score (higher = more potent)?
Result string: -0.0651

Where do the numbers come from? From the OligoGym collection.
